# TESTED SYSTEM: Lanosterol 14-alpha demethylase (Candida albicans (strain SC5314 / ATCC MYA-2876) (Yeast), UniProt P10613)
# Sequence (P10613 whole entry): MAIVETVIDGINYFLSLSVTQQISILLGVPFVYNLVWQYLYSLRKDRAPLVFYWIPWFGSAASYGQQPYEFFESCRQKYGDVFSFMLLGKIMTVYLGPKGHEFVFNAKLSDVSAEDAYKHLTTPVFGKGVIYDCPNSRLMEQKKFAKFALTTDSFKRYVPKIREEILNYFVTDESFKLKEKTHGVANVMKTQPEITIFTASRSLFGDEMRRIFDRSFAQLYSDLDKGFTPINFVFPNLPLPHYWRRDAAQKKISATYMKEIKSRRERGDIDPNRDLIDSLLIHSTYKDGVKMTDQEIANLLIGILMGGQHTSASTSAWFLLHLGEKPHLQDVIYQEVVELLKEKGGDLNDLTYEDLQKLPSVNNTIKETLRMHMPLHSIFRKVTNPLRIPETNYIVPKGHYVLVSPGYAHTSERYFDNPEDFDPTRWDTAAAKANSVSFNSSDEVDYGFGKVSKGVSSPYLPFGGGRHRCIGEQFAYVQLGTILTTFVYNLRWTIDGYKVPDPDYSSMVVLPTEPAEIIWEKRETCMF
# EXPERIMENT DESCRIPTION: Inhibition of CYP51 in Candida albicans ATCC SC5314 assessed as ergosterol content at 4 ug/ml measured after 48 hrs by GC-MS analysis (reference value: 95.61%)
# Parameters: scale not given: the % may be the effect or the level left
# REPORTED CONDITIONS: at 4 µg/mL
Here, each record is paired with measured Activity data.
// units = %; emit number, no label

Guide cases for Activity, answers given:
OC(Cn1cncn1)(Cn1cncn1)c1ccc(F)cc1F ... 20.57
C[C@H](C(=O)N(C)CC(O)(Cn1ccnc1)c1ccc(Cl)cc1)c1ccc(-c2ccccc2)c(F)c1 (some centres undefined) ... 13.51
C[C@H](C(=O)N(C)CC(O)(Cn1ccnc1)c1ccc(Cl)cc1Cl)c1cccc(C(=O)c2ccccc2)c1 (some centres undefined) ... 7.95

Field: next molecule
Entry C[C@H](C(=O)OC(Cn1ccnc1)c1ccc(F)cc1)c1ccc(-c2ccccc2)c(F)c1 (some centres undefined) has what Activity?
21.84

// provenance: ChEMBL document CHEMBL5214990
